System name: CDK4 (Homo sapiens)
Construct: endogenous in cells; host or cells: Calu-1
Protocol notes: CDK4 percentage degradation in Calu-1 cells (immunoblotting)
Type: cell-based
Experimental setup: Calu-1 cells, 200 nM, 16 hours; read-out: CDK4 Degradation (200 nM)
As shown below, each of these compounds has a reported inhibition at 0.2 µM value.

Example entries and their recorded answers appear below.
Identify measured inhibition at 0.2 µM associated with CC(=O)c1c(C)c2cnc(Nc3ccc(N4CCN(CC(=O)NCCOCCOCCC(=O)Nc5cc(Cl)ccc5C(=O)Nc5nc(C)c(C)s5)CC4)cn3)nc2n(C2CCCC2)c1=O [CPD-140]
50 to 80%

Supply inhibition at 0.2 µM value. Item: CC(=O)c1c(C)c2cnc(N(C)c3ccc(N4CCN(CC(=O)NCCOCCOCCOCCOCCOCCNc5ccc(C(=O)Nc6ncc(C)s6)c(C)c5)CC4)cn3)nc2n(C2CCCC2)c1=O [CPD-042]
< 30%

Look up inhibition at 0.2 µM of CC(=O)c1c(C)c2cnc(Nc3ccc(N4CCN(CC(=O)NCCOCCOCCC(=O)Nc5ccccc5C(=O)Nc5cc(C6CC6)n(C)n5)CC4)cn3)nc2n(C2CCCC2)c1=O [CPD-079] and report it.
< 30%

Supply reported inhibition at 0.2 µM belonging to this compound: CC(=O)c1c(C)c2cnc(Nc3ccc(N4CCN(CC(=O)NCCOCCOCCOCCOCCOCCNc5ccc(C)c(C(=O)Nc6nc(C)c(C)s6)c5)CC4)cn3)nc2n(C2CCCC2)c1=O [CPD-097]
50 to 80%

Answer with reported inhibition at 0.2 µM of CC(=O)c1c(C)c2cnc(Nc3ccc(N4CCN(CC(=O)NCCOCCOCCC(=O)Nc5ccccc5C(=O)Nc5cnc(C)cn5)CC4)cn3)nc2n(C2CCCC2)c1=O [CPD-054]
50 to 80%

Others:
Note down inhibition at 0.2 µM recorded for CC(=O)c1c(C)c2cnc(Nc3ccc(N4CCN(CC(=O)NCCCCCCCNC(=O)c5ccc(C(=O)Nc6ncc(C)s6)c(C)c5)CC4)cn3)nc2n(C2CCCC2)c1=O [CPD-048]
< 30%

* * *

System name: CDK4 (Homo sapiens)
Construct: endogenous in cells; host or cells: Calu-1
Protocol notes: CDK4 percentage degradation in Calu-1 cells (immunoblotting)
Assay type: cell-based
Experimental setup: Calu-1 cells, 10 μM, 16 hours; read-out: CDK4 Degradation (10 μM)
Measurement kind: inhibition at 10 µM

Find the measured inhibition at 10 µM of Cc1nc(NC(=O)c2ccccc2NC(=O)CCOCCNC(=O)CN2CCN(Cc3ccc(Nc4ncc(F)c(-c5cc(F)c6nc(C)n(C(C)C)c6c5)n4)nc3)CC2)sc1C [CPD-280] with CDK4 (Homo sapiens) as test system.
< 30%

Look up and report measured inhibition at 10 µM (CDK4 (Homo sapiens)) for the following compound: Cc1nc(NC(=O)c2ccccc2NC(=O)CCCCCCNC(=O)CN2CCN(c3ccc(Nc4ncc(F)c(-c5cc(F)c6nc(C)n(C(C)C)c6c5)n4)nc3)CC2)sc1C [CPD-305]
< 30%

State, for CDK4 (Homo sapiens), measured inhibition at 10 µM of the compound listed here: Cc1nc(NC(=O)c2ccccc2NC(=O)CCCCNC(=O)CN2CCN(c3ccc(Nc4ncc(F)c(-c5cc(F)c6nc(C)n(C(C)C)c6c5)n4)nc3)CC2)sc1C [CPD-303]
< 30%

Report measured inhibition at 10 µM on CDK4 (Homo sapiens); entry: Cc1nc(NC(=O)c2ccccc2NC(=O)CCOCCOCCOCCOCCOCCNC(=O)CN2CCN(c3ccc(Nc4ncc(F)c(-c5cc(F)c6nc(C)n(C(C)C)c6c5)n4)nc3)CC2)sc1C [CPD-312]
< 30%

---
With CDK4 (Homo sapiens) as the test system, provide measured inhibition at 10 µM for this compound: Cc1nc(NC(=O)c2ccccc2NC(=O)CNC(=O)CN2CCN(c3ccc(Nc4ncc(F)c(-c5cc(F)c6nc(C)n(C(C)C)c6c5)n4)nc3)CC2)sc1C [CPD-300]
< 30%

Fill in: inhibition at 10 µM on CDK4 (Homo sapiens), entry Cc1nc(NC(=O)c2ccccc2NC(=O)CCCCNC(=O)CN2CCN(Cc3ccc(Nc4ncc(F)c(-c5cc(F)c6nc(C)n(C(C)C)c6c5)n4)nc3)CC2)sc1C [CPD-275]
< 30%

Param request: inhibition at 10 µM | system CDK4 (Homo sapiens) | item Cc1nc(NC(=O)c2ccccc2NC(=O)CCCCCNC(=O)CN2CCN(c3ccc(Nc4ncc5cc(C(=O)N(C)C)n(C6CCCC6)c5n4)nc3)CC2)sc1C [CPD-290]
30 to 50%

Jot down inhibition at 10 µM (CDK4 (Homo sapiens)) of Cc1nc(NC(=O)c2ccccc2NC(=O)CNC(=O)CN2CCN(Cc3ccc(Nc4ncc(F)c(-c5cc(F)c6nc(C)n(C(C)C)c6c5)n4)nc3)CC2)sc1C [CPD-272] .
< 30%

Look up and report measured inhibition at 10 µM (CDK4 (Homo sapiens)) for the following compound: Cc1nc(NC(=O)c2ccccc2NC(=O)CCCCCCCNC(=O)CN2CCN(c3ccc(Nc4ncc5cc(C(=O)N(C)C)n(C6CCCC6)c5n4)nc3)CC2)sc1C [CPD-292]
< 30%

Under CDK4 (Homo sapiens), report inhibition at 10 µM for Cc1nc(NC(=O)c2ccccc2NC(=O)CNC(=O)CN2CCN(c3ccc(Nc4ncc5cc(C(=O)N(C)C)n(C6CCCC6)c5n4)nc3)CC2)sc1C [CPD-286]
50 to 80%

State inhibition at 10 µM (CDK4 (Homo sapiens)) of Cc1nc(NC(=O)c2ccccc2NC(=O)CCCCCNC(=O)CN2CCN(Cc3ccc(Nc4ncc(F)c(-c5cc(F)c6nc(C)n(C(C)C)c6c5)n4)nc3)CC2)sc1C [CPD-276] .
< 30%

For CDK4 (Homo sapiens), give the measured inhibition at 10 µM of the entry Cc1nc(NC(=O)c2ccccc2NC(=O)CCOCCOCCOCCOCCNC(=O)CN2CCN(c3ccc(Nc4ncc5cc(C(=O)N(C)C)n(C6CCCC6)c5n4)nc3)CC2)sc1C [CPD-297]
50 to 80%

Find the measured inhibition at 10 µM of Cc1nc(NC(=O)c2ccccc2NC(=O)CCCCCCNC(=O)CN2CCN(Cc3ccc(Nc4ncc(F)c(-c5cc(F)c6nc(C)n(C(C)C)c6c5)n4)nc3)CC2)sc1C [CPD-277] with CDK4 (Homo sapiens) as test system.
< 30%

For CDK4 (Homo sapiens), give inhibition at 10 µM of the listed compound: Cc1nc(NC(=O)c2ccccc2NC(=O)CCOCCOCCOCCNC(=O)CN2CCN(c3ccc(Nc4ncc5cc(C(=O)N(C)C)n(C6CCCC6)c5n4)nc3)CC2)sc1C [CPD-296]
50 to 80%

* * *

System name: CDK4 (Homo sapiens, UniProt P11802)
Construct: endogenous in cells; host or cells: Calu-1
Sequence (P11802 2-303 limits assumed): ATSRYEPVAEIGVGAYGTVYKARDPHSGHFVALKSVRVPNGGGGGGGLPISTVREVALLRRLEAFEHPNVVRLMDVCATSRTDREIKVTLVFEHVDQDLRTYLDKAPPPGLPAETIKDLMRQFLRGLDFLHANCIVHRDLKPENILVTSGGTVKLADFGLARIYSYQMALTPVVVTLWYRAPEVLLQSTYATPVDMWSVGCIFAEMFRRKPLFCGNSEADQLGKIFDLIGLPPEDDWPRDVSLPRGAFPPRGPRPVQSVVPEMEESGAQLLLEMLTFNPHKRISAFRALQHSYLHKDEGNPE
Sequence (P24385 whole entry partner): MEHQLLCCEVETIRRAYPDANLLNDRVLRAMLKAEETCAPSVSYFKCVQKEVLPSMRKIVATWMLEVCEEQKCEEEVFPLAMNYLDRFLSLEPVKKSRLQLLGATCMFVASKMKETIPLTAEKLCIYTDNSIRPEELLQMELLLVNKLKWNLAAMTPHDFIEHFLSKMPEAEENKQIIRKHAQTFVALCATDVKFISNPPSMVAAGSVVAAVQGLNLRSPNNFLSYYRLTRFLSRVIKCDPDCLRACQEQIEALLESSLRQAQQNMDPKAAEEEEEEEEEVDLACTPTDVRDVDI
Sequence (Q16531 2-1140 limits assumed, further chain): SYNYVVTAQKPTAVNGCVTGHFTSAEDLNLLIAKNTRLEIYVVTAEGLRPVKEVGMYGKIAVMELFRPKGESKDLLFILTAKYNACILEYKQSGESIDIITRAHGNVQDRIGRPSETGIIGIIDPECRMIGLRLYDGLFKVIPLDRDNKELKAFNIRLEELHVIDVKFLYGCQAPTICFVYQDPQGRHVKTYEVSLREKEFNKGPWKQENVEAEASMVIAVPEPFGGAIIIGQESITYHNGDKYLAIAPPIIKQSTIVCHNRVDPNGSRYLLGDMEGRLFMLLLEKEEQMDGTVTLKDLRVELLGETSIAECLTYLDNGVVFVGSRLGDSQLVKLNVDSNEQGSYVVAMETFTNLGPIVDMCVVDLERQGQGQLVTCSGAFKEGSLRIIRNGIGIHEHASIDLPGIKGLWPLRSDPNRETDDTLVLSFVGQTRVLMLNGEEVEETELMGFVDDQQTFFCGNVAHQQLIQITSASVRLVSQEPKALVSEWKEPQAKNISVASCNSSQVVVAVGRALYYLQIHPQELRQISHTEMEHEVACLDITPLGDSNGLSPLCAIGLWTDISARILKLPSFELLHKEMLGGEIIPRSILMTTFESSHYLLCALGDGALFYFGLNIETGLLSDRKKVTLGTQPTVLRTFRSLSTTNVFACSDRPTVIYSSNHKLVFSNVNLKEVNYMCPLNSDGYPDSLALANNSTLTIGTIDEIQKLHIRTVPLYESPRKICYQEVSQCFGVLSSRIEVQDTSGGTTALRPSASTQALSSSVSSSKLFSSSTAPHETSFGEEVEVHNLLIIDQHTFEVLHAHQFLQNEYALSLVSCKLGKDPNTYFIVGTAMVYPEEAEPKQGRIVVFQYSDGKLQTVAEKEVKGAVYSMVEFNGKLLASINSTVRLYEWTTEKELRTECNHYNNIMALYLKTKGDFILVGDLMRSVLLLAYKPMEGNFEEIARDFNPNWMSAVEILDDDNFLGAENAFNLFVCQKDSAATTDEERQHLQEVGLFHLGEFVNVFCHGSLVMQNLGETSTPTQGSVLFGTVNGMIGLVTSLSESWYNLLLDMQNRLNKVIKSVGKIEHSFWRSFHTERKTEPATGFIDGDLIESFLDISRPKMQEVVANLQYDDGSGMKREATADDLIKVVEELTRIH
Protocol notes: CDK4 percentage degradation in Calu-1 cells (immunoblotting)
Type: cell-based
Experimental setup: Calu-1 cells, 200 nM, 16 hours; read-out: CDK4 Degradation (200 nM)
Measurement kind: inhibition at 0.2 µM

// known answers, use as guide
Indicate its recorded inhibition at 0.2 µM; the molecule in question is `CC(=O)c1c(C)c2cnc(Nc3ccc(N4CCN(CC(=O)NCCCCCC(=O)Nc5ccccc5C(=O)Nc5nc(C)c(C)s5)CC4)cn3)nc2n(C2CCCC2)c1=O`
30 to 50%

Respond only with inhibition at 0.2 µM recorded for `CC(=O)c1c(C)c2cnc(Nc3ccc(N4CCN(CC(=O)NCCCCCCCCNc5ccc(C)c(C(=O)Nc6nc(C)c(C)s6)c5)CC4)cn3)nc2n(C2CCCC2)c1=O`
< 30%

Provide inhibition at 0.2 µM value for the following molecule: `CC(=O)c1c(C)c2cnc(Nc3ccc(N4CCN(CC(=O)NCCOCCOCCOCCOCCOCCNc5ccc(C(=O)Nc6nc(C7CC7)c(C)s6)c(C)c5)CC4)cn3)nc2n(C2CCCC2)c1=O`
> 80%

Further cases:
Item `CC(=O)c1c(C)c2cnc(Nc3ccc(N4CCN(CC(=O)NCCCCC(=O)Nc5ccccc5C(=O)Nc5ccc(C)cn5)CC4)cn3)nc2n(C2CCCC2)c1=O` : provide inhibition at 0.2 µM
50 to 80%

Give reported inhibition at 0.2 µM value for `CC(=O)c1c(C)c2cnc(Nc3ccc(N4CCN(CC(=O)NCC(=O)Nc5ccccc5C(=O)Nc5nc(C)c(C)s5)CC4)cn3)nc2n(C2CCCC2)c1=O`
< 30%

Look up inhibition at 0.2 µM of `CC(=O)c1c(C)c2cnc(Nc3ccc(N4CCN(CC(=O)NCCCCCCCNc5cccc(C(=O)Nc6nc(C)c(C)s6)c5C)CC4)cn3)nc2n(C2CCCC2)c1=O` and report it.
50 to 80%

Give inhibition at 0.2 µM for the following molecule: `CC(=O)c1c(C)c2cnc(Nc3ccc(N4CCN(CC(=O)NCCCCNc5ccc(C)c(C(=O)Nc6nc(C)c(C)s6)c5)CC4)cn3)nc2n(C2CCCC2)c1=O`
< 30%
